- experimental system: WEE1 (Homo sapiens, UniProt P30291)
- Construct: purchased Thermo Fisher PR7373A
- Sequence (P30291 whole entry): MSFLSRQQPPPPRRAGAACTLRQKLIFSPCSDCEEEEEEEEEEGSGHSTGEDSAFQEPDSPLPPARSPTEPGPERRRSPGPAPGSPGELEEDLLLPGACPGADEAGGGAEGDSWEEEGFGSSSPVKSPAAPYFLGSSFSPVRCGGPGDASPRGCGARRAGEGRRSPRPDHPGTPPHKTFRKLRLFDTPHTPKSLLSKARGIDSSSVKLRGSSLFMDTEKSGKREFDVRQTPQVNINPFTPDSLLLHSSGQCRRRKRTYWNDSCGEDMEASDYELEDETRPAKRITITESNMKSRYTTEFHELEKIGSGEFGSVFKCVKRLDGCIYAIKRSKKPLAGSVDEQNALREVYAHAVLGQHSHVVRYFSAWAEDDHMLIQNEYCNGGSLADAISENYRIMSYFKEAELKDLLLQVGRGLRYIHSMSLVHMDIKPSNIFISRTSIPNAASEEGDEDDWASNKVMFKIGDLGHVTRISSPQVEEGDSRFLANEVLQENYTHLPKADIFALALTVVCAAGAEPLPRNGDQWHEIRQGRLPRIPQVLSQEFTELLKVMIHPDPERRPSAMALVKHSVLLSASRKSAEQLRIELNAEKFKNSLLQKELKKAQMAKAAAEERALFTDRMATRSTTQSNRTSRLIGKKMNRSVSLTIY
- protocol description: Selectivity versus WEE1 assay (ADP-Glo enzymatic assay)
- Format: biochemical
- applied conditions: fold difference in selectivity for PKMYT1 over WEE1; banded
reported property: PKMYT1 vs. WEE1 selectivity

// worked examples, PKMYT1 vs. WEE1 selectivity included
Cc1ccc(O)c(C)c1NC(=O)c1cnc(Nc2cc(N3CCOCC3)ncn2)s1 ... W (10-<100 fold)
CCN(CCOC)C(=O)Cn1cc(C)c(Nc2ncc(C(=O)Nc3c(C)ccc(O)c3C)s2)n1 ... X (100-<1000 fold)
CCOc1ccc(Nc2ncc(C(=O)Nc3c(C)ccc(O)c3C)s2)nc1C ... Y (1000-5000 fold)
CCn1nc(Nc2ncc(C(=O)Nc3c(C)ccc(O)c3C)s2)c2ccccc21 ... X (100-<1000 fold)
Cc1ccc(O)c(C)c1NC(=O)c1cnc(Nc2ncc(C(C)(C)C)o2)s1 ... W (10-<100 fold)

I'd like to know its PKMYT1 vs. WEE1 selectivity. The compound in question is `Cc1cn(CC(=O)N2CCCC2(C)C)nc1Nc1ncc(C(=O)Nc2c(C)ccc(O)c2C)s1` X (100-<1000 fold)

For the compound shown here, `Cc1ccc(O)c(C)c1NC(=O)c1cnc(Nc2ccc3c(c2)NC(=O)CO3)s1` , give the reported PKMYT1 vs. WEE1 selectivity. X (100-<1000 fold)
